experiment: pharmacokinetic parameter was evaluated after oral administration of 30 mg/kg to rat; type: ADME, organism-based; design: dose 30 mg/kg, route oral; settings: in vivo
Measured Tmax, listed per entry for reference.
The response must be a number in h with no trailing unit.

Example entries and their recorded answers appear below.
| CHEM_SMILES | MEASURE_NAME | RECORDED_VALUE |
| --- | --- | --- |
| COc1cc2ncnc(N3CCN(/C(S)=N\Cc4ccc5c(c4)OCO5)CC3)c2cc1OC | Tmax | 3.33 |
| COc1cc2ncnc(N3CCN(C(=S)NCc4ccco4)CC3)c2cc1OC | Tmax | 3.67 |
| COc1cc2ncnc(N3CCN(/C(S)=N\Cc4cccnc4)CC3)c2cc1OC.Cl.Cl | Tmax | 0.67 |

Now look at this entry.
Q: Return the recorded Tmax value; entry: COc1cc2ncnc(N3CCN(C(=O)Nc4ccsc4)CC3)c2cc1OC
Result: 3.33
